Assay: Time-dependent PK of D-DOPA with or without sodium benzoate (Example 2)
Type: in vivo, CD-1 mice
Conditions: PO 50 mg/kg + sodium benzoate 400 mg/kg IP, plasma; read-out: Cmax
Method: All of the formulations were freshly prepared prior to the dosing. […] Tissue and plasma collection were carried out as described above. […] Van […] et al., 2020; Wang et al., 2015. While D-/L-DOPA required derivatization with acetic anhydride, caffeic acid was analyzed using a single step protein precipitation method. […] The analyte was monitored using ThermoScientific […] triple-quadrupole mass-spectrometric detector equipped with an electrospray interface, and operated in negative ion mode. […]
measurement.name: Cmax (µM)
The reply should contain only the number, in µM.

Quick one: Cmax of N[C@H](Cc1ccc(O)c(O)c1)C(=O)O [D-DOPA, D-3,4-dihydroxyphenylalanine] ?
151

###

assay: Pharmacokinetics of D-DOPA in mouse plasma and brain (IV, PO, IN; Example 1); type: in vivo, CD1 mice; details: CD1, mouse, brain/plasma, po, 30 mg/kg, PO 30 mg/kg; read-out: AUCBrain/Plasma (brain penetration index)
measurement.name: Kp

Quick one: Kp of N[C@H](Cc1ccc(O)c(O)c1)C(=O)O [D-DOPA, D-3,4-dihydroxyphenylalanine] ?
< 0.05

###

biological target: Recombinant human GCPII enzyme (Homo sapiens (Human)); assay: GCPII activity assay (IC50, radiolabelled NAAG hydrolysis); type: biochemical; conditions: Table 2-1, human recombinant GCPII
Below, each entry is listed alongside its reported IC50.
The reply should contain only the number, in µM.

Example entries begin here.
>>> recorded_number("O=C(O)CCc1ccc(O)c(O)c1")
4
>>> recorded_number("N[C@@H](Cc1ccc(O)cc1)C(=O)O")
100
>>> recorded_number("CC(=O)N[C@@H](Cc1ccc(O)c(O)c1)C(=O)O")
20

From here, focus on the item given below.
Quick one: IC50 of "N[C@@H](Cc1ccc(O)c(O)c1)C(=O)O" ?
0.6

###

biological target: Recombinant human GCPII enzyme (Homo sapiens (Human), UniProt Q04609); experiment: GCPII activity assay (IC50, radiolabelled NAAG hydrolysis); format: biochemical; settings: SAR of L-DOPA analogs
Sequence (Q04609 whole entry): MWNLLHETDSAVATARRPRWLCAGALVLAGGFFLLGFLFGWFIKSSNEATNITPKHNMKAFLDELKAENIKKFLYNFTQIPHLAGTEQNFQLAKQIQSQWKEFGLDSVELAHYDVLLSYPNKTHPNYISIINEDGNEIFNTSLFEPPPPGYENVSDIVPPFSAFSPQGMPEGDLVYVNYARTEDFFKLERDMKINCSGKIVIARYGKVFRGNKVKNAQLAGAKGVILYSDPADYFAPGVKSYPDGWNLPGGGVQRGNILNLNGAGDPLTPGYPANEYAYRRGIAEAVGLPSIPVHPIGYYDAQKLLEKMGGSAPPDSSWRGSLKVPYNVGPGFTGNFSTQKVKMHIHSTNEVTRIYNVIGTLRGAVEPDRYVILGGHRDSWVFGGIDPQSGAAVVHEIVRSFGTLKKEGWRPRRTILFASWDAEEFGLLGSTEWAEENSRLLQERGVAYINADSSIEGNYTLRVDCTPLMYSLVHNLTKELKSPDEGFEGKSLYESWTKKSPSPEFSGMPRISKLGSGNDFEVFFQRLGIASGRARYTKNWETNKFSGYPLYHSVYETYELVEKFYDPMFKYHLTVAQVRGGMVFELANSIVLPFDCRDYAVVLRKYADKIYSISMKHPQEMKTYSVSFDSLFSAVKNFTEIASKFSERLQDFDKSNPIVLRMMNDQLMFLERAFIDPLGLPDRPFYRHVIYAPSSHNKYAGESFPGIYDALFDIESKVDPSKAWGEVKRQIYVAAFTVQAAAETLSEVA
measurement.name: GCPII inhibitory potency (in words)

>>> result("NCCc1ccc(O)c(O)c1")
"loss of potency"
>>> result("CC(=O)N[C@@H](Cc1ccc(O)c(O)c1)C(=O)O")
"loss of potency"
>>> result("O=C(O)/C=C/c1ccc(O)c(O)c1")
"sub-micromolar potencies"
>>> result("C[C@](N)(Cc1ccc(O)c(O)c1)C(=O)O")
"loss of potency"

From here, focus on the item given below.
Quick one: GCPII inhibitory potency (in words) of N[C@H](Cc1ccc(O)c(O)c1)C(=O)O [D-DOPA, D-3,4-dihydroxyphenylalanine] ?
sub-micromolar potencies

###

assay: Pharmacokinetics of D-DOPA in mouse plasma and brain (IV, PO, IN; Example 1); format: in vivo, CD1 mice; details: CD1, mouse, plasma; PO 30 mg/kg vs IV 10 mg/kg; read-out: Bioavailability (% F)
measurement.name: bioavailability
Enter the number, and then the unit.

Quick one: bioavailability of N[C@H](Cc1ccc(O)c(O)c1)C(=O)O [D-DOPA, D-3,4-dihydroxyphenylalanine] ?
36%

###

experiment: Pharmacokinetics of D-DOPA in mouse plasma and brain (IV, PO, IN; Example 1); type: in vivo, CD1 mice; conditions: CD1, mouse; PO 30 mg/kg, plasma; read-out: Cmax
measurement.name: Cmax (µM)
The reply should contain only the number, in µM.

Quick one: Cmax of N[C@H](Cc1ccc(O)c(O)c1)C(=O)O [D-DOPA, D-3,4-dihydroxyphenylalanine] ?
43.1

###

molecular target: Recombinant human GCPII enzyme (Homo sapiens (Human)); test: GCPII activity assay (IC50, radiolabelled NAAG hydrolysis); assay type: biochemical; conditions: GCPII
measurement.name: IC50 (µM)
The reply should contain only the number, in µM.

>>> recorded_number("O=C(O)/C=C/c1ccc(O)c(O)c1 [Caffeic acid]")
0.3

From here, focus on the item given below.
Quick one: IC50 of N[C@H](Cc1ccc(O)c(O)c1)C(=O)O [D-DOPA, D-3,4-dihydroxyphenylalanine] ?
0.2

###

biological target: Recombinant human GCPII enzyme (Homo sapiens (Human)); assay: GCPII activity assay (IC50, radiolabelled NAAG hydrolysis); format: biochemical; conditions: Table 1, catechol scaffolds for GCPII inhibition
measurement.name: IC50 (nM)
The reply should contain only the number, in nM.

>>> recorded_number("O=C(O)/C=C/c1ccc(O)c(O)c1")
100

From here, focus on the item given below.
Quick one: IC50 of "N[C@@H](Cc1ccc(O)c(O)c1)C(=O)O" ?
400

###

biological target: Recombinant human GCPII enzyme (Homo sapiens (Human), UniProt Q04609); assay: biochemical
measurement.name: Ki

# value lookup — system Recombinant human GCPII enzyme (Homo sapiens (Human), UniProt Q04609), readout Ki, item N[C@H](Cc1ccc(O)c(O)c1)C(=O)O [D-DOPA, D-3,4-dihydroxyphenylalanine]
~400 nM

###

assay: Pharmacokinetics of D-DOPA in mouse plasma and brain (IV, PO, IN; Example 1); format: in vivo, CD1 mice; conditions: CD1, mouse, plasma, iv, 10 mg/kg, IV 10 mg/kg, plasma; read-out: Tmax
measurement.name: Tmax

Quick one: Tmax of N[C@H](Cc1ccc(O)c(O)c1)C(=O)O [D-DOPA, D-3,4-dihydroxyphenylalanine] ?
≤ 5 min

###

test: Time-dependent PK of D-DOPA with or without sodium benzoate (Example 2); format: in vivo, CD-1 mice; details: CD-1, mouse, plasma, po, 50 mg/kg, PO 50 mg/kg monotherapy, plasma; read-out: AUCPO-plasma
measurement.name: AUC (µM·h)
The reply should contain only the number, in µM·h.

Quick one: AUC of N[C@H](Cc1ccc(O)c(O)c1)C(=O)O [D-DOPA, D-3,4-dihydroxyphenylalanine] ?
72.7

###

assay: Pharmacokinetics of D-DOPA in mouse plasma and brain (IV, PO, IN; Example 1); format: in vivo, CD1 mice; settings: CD1, mouse, inhaled or intranasal; IN 3.4 mg/kg, plasma; read-out: Cmax
measurement.name: Cmax (µM)
The reply should contain only the number, in µM.

Quick one: Cmax of N[C@H](Cc1ccc(O)c(O)c1)C(=O)O [D-DOPA, D-3,4-dihydroxyphenylalanine] ?
4.45

###

Test: Time-dependent PK of D-DOPA with or without sodium benzoate (Example 2)
Type: in vivo, CD-1 mice
Conditions: CD-1, mouse, plasma, po, 50 mg/kg, PO 50 mg/kg + sodium benzoate 400 mg/kg IP, plasma; read-out: AUCPlasma
Experimental: All of the formulations were freshly prepared prior to the dosing. […] Tissue and plasma collection were carried out as described above. […] Van […] et al., 2020; Wang et al., 2015. While D-/L-DOPA required derivatization with acetic anhydride, caffeic acid was analyzed using a single step protein precipitation method. […] The analyte was monitored using ThermoScientific […] triple-quadrupole mass-spectrometric detector equipped with an electrospray interface, and operated in negative ion mode. […]
measurement.name: AUC (µM·h)
The reply should contain only the number, in µM·h.

Quick one: AUC of N[C@H](Cc1ccc(O)c(O)c1)C(=O)O [D-DOPA, D-3,4-dihydroxyphenylalanine] ?
185

###

experiment: Pharmacokinetics of D-DOPA in mouse plasma and brain (IV, PO, IN; Example 1); format: in vivo, CD1 mice; details: CD1, mouse, brain/plasma, other: intranasal, 3.4 mg/kg, IN 3.4 mg/kg; read-out: AUCBrain/Plasma (brain penetration index)
measurement.name: Kp
Kindly provide the number alone.

Quick one: Kp of N[C@H](Cc1ccc(O)c(O)c1)C(=O)O [D-DOPA, D-3,4-dihydroxyphenylalanine] ?
0.051
